Experiment: Bioavailability and pharmacokinetic profile following intravenous and oral administration
Type: in vivo, Male Sprague Dawley Rats
Details: male, Sprague Dawley, rat, plasma, iv, 5 mg/kg, IV (5 mg/kg); Mean
Readout label: AUC(0-t)

In: // Input: `CN1CCN(c2cc(N3CCN(C)S3(=O)=O)c3nc(C(=O)NCc4ccc(F)cc4)c(O)c(=O)n3c2)CC1` . Output its AUC(0-t) only.
Out: 1850 ng·h/mL

###

Experiment: Bioavailability and pharmacokinetic profile following intravenous and oral administration
Format: in vivo, Male Sprague Dawley Rats
Conditions: male, Sprague Dawley, rat, plasma, iv, 5 mg/kg, IV (5 mg/kg); Mean; read-out: MRT(0-∞)
Experimental: Method: For IV infusion over 10 minutes the compound of Example 3.4 was dissolved in 20% DMSO, 30% PEG400 and 50% Water. For oral (PO) dosing AVX62738 was dissolved in 0.5% benzyl alcohol and 0.4% Tween 80 and 99.1% 0.5% hydroxypropylmethylcellulose. Compounds were dosed IV and then after a one week washout, orally in the same rats. (Body weight: Rat 1: 254.7 g; Rat 2: 253.4 g). Ex-vivo plasma samples were assayed for AVX62738 using an LC-ms method of Lower limit of quantitation. (LLOQ)=2.5 ng/mL.
Readout label: MRT inf (min)
Numeric answer only, unit min assumed.

In: Specify MRT inf for CN1CCN(c2cc(N3CCN(C)S3(=O)=O)c3nc(C(=O)NCc4ccc(F)cc4)c(O)c(=O)n3c2)CC1 [Example 3.4] and stop.
Out: 39.6

###

Assay: Bioavailability and pharmacokinetic profile following intravenous and oral administration
Assay type: in vivo, Male Sprague Dawley Rats
Details: male, Sprague-Dawley, rat, plasma, iv, 5 mg/kg, IV (5 mg/kg); animal 702
Readout label: AUC(0-t) (ng·h/mL)
Report the value in ng·h/mL with no unit label.

In: Determine its reported AUC(0-t): CN1CCN(c2cc(N3CCN(C)S3(=O)=O)c3nc(C(=O)NCc4ccc(F)cc4)c(O)c(=O)n3c2)CC1 [Example 3.4]
Out: 1850

###

Assay: Bioavailability and pharmacokinetic profile following intravenous and oral administration
Type: in vivo, Male Sprague Dawley Rats
Details: male, Sprague Dawley, rat, plasma, po, 10 mg/kg, PO 10 mg/kg; Mean; 4 hr
Readout label: concentration at 4 hr (ng/mL)
// note: answer is a bare numeric in ng/mL

In: Indicate its recorded concentration at 4 hr; the compound in question is `CN1CCN(c2cc(N3CCN(C)S3(=O)=O)c3nc(C(=O)NCc4ccc(F)cc4)c(O)c(=O)n3c2)CC1`
Out: 5.29

###

Assay: Bioavailability and pharmacokinetic profile following intravenous and oral administration
Assay type: in vivo, Male Sprague Dawley Rats
Conditions: male, Sprague Dawley, rat, plasma, po, 10 mg/kg, PO 10 mg/kg; Mean; 0.25 hr
Readout label: concentration at 0.25 hr (ng/mL)
Response body: numeric value in ng/mL, unit text excluded.

In: Kindly indicate its recorded concentration at 0.25 hr. Item: `CN1CCN(c2cc(N3CCN(C)S3(=O)=O)c3nc(C(=O)NCc4ccc(F)cc4)c(O)c(=O)n3c2)CC1`
Out: 72.2

###

Assay: Bioavailability and pharmacokinetic profile following intravenous and oral administration
Type: in vivo, Male Sprague Dawley Rats
Details: male, Sprague Dawley, rat, plasma, po, 10 mg/kg, PO 10 mg/kg; Mean; 0.5 hr
Readout label: concentration at 0.5 hr (ng/mL)
All answers are understood in ng/mL, so give the number only.

In: Please indicate concentration at 0.5 hr recorded for `CN1CCN(c2cc(N3CCN(C)S3(=O)=O)c3nc(C(=O)NCc4ccc(F)cc4)c(O)c(=O)n3c2)CC1`
Out: 63.6

###

Assay: Bioavailability and pharmacokinetic profile following intravenous and oral administration
Assay type: in vivo, Male Sprague Dawley Rats
Details: male, Sprague Dawley, rat, plasma, iv, 5 mg/kg, IV 5 mg/kg; Rat 2; 0.5 hr
Method: Method: For IV infusion over 10 minutes the compound of Example 3.4 was dissolved in 20% DMSO, 30% PEG400 and 50% Water. For oral (PO) dosing AVX62738 was dissolved in 0.5% benzyl alcohol and 0.4% Tween 80 and 99.1% 0.5% hydroxypropylmethylcellulose. Compounds were dosed IV and then after a one week washout, orally in the same rats. (Body weight: Rat 1: 254.7 g; Rat 2: 253.4 g). Ex-vivo plasma samples were assayed for AVX62738 using an LC-ms method of Lower limit of quantitation. (LLOQ)=2.5 ng/mL.
Readout label: concentration at 0.5 hr (ng/mL)
Record the value in ng/mL, omitting the unit from your answer.

In: Given the compound `CN1CCN(c2cc(N3CCN(C)S3(=O)=O)c3nc(C(=O)NCc4ccc(F)cc4)c(O)c(=O)n3c2)CC1` , write its reported concentration at 0.5 hr.
Out: 1060

###

Assay: Bioavailability and pharmacokinetic profile following intravenous and oral administration
Type: in vivo, Male Sprague Dawley Rats
Conditions: male, Sprague Dawley, rat, plasma, iv, 5 mg/kg, IV 5 mg/kg; Mean; 2 hr
Experimental: Method: For IV infusion over 10 minutes the compound of Example 3.4 was dissolved in 20% DMSO, 30% PEG400 and 50% Water. For oral (PO) dosing AVX62738 was dissolved in 0.5% benzyl alcohol and 0.4% Tween 80 and 99.1% 0.5% hydroxypropylmethylcellulose. Compounds were dosed IV and then after a one week washout, orally in the same rats. (Body weight: Rat 1: 254.7 g; Rat 2: 253.4 g). Ex-vivo plasma samples were assayed for AVX62738 using an LC-ms method of Lower limit of quantitation. (LLOQ)=2.5 ng/mL.
Readout label: concentration at 2 hr (ng/mL)
State just the number; it will be interpreted in ng/mL.

In: For `CN1CCN(c2cc(N3CCN(C)S3(=O)=O)c3nc(C(=O)NCc4ccc(F)cc4)c(O)c(=O)n3c2)CC1` , write its concentration at 2 hr.
Out: 113

###

Assay: Bioavailability and pharmacokinetic profile following intravenous and oral administration
Type: in vivo, Male Sprague Dawley Rats
Conditions: male, Sprague Dawley, rat, plasma, iv, 5 mg/kg, IV 5 mg/kg; Mean; 0.083 hr
Readout label: concentration at 0.083 hr (ng/mL)
State the answer as a number, implicitly in ng/mL.

In: Complete the entry with concentration at 0.083 hr for `CN1CCN(c2cc(N3CCN(C)S3(=O)=O)c3nc(C(=O)NCc4ccc(F)cc4)c(O)c(=O)n3c2)CC1`
Out: 3030

###

Experiment: Bioavailability and pharmacokinetic profile following intravenous and oral administration
Format: in vivo, Male Sprague Dawley Rats
Conditions: male, Sprague-Dawley, rat, plasma, iv, 5 mg/kg, IV (5 mg/kg); animal 702
Readout label: Tmax (min)
Express it in min; write the number only.

In: Please supply the value of reported Tmax for the item `CN1CCN(c2cc(N3CCN(C)S3(=O)=O)c3nc(C(=O)NCc4ccc(F)cc4)c(O)c(=O)n3c2)CC1`
Out: 4.8

###

Assay: Bioavailability and pharmacokinetic profile following intravenous and oral administration
Type: in vivo, Male Sprague Dawley Rats
Settings: male, Sprague Dawley, rat, plasma, iv, 5 mg/kg, IV 5 mg/kg; Rat 2; 0.083 hr
Readout label: concentration at 0.083 hr (ng/mL)
Enter your answer as a number in ng/mL; do not include the unit.

In: Complete the entry with concentration at 0.083 hr for CN1CCN(c2cc(N3CCN(C)S3(=O)=O)c3nc(C(=O)NCc4ccc(F)cc4)c(O)c(=O)n3c2)CC1 [Example 3.4]
Out: 3350

###

Assay: Bioavailability and pharmacokinetic profile following intravenous and oral administration
Type: in vivo, Male Sprague Dawley Rats
Conditions: male, Sprague Dawley, rat, plasma, iv, 5 mg/kg, IV 5 mg/kg; Rat 2; 2 hr
Readout label: concentration at 2 hr (ng/mL)
Note: unit ng/mL is implicit; provide only the numeric part.

In: // Input: CN1CCN(c2cc(N3CCN(C)S3(=O)=O)c3nc(C(=O)NCc4ccc(F)cc4)c(O)c(=O)n3c2)CC1 [Example 3.4] . Output its concentration at 2 hr only.
Out: 104

###

Experiment: Bioavailability and pharmacokinetic profile following intravenous and oral administration
Assay type: in vivo, Male Sprague Dawley Rats
Conditions: male, Sprague-Dawley, rat, plasma, iv, 5 mg/kg, IV (5 mg/kg); animal 701; read-out: Vz
Readout label: Vd (L/kg)
Answer in L/kg, number only, no unit symbol.

In: For the compound `CN1CCN(c2cc(N3CCN(C)S3(=O)=O)c3nc(C(=O)NCc4ccc(F)cc4)c(O)c(=O)n3c2)CC1` , report Vd.
Out: 5.39

###

Experiment: Bioavailability and pharmacokinetic profile following intravenous and oral administration
Type: in vivo, Male Sprague Dawley Rats
Conditions: male, Sprague Dawley, rat, plasma, po, 10 mg/kg, PO (10 mg/kg); animal 801
Readout label: Cmax (ng/mL)
Report the figure in ng/mL without appending any unit label.

In: Return value of Cmax for input CN1CCN(c2cc(N3CCN(C)S3(=O)=O)c3nc(C(=O)NCc4ccc(F)cc4)c(O)c(=O)n3c2)CC1 [Example 3.4] , no commentary.
Out: 66.2
